Assay: amyloid nucleation score (Sup35N fusion, yeast selection) (log enrichment); library NNK2; higher = more nucleation; inactive = no reads after selection;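 further: zero at mode of non-aggregating sequences after 7 days selection at 30°C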
valueType: amyloid nucleation score

[[record]]
substance = "VGGYLAICNGLSSLCLDPG"
endpointresult = -0.59

[[record]]
substance = "MNSSQGTDAKRMLYHRCSET"
endpointresult = -0.29

[[record]]
substance = "NMYFEVALFT"
endpointresult = -1.22

[[record]]
substance = "MVLIENSCKMSSYQE"
endpointresult = -0.405

[[record]]
substance = "LTLLHFRREDTHCSGTGTPC"
endpointresult = 1

[[record]]
substance = "RINKGISGRGSD"
endpointresult = 0.582

[[record]]
substance = "SFYWKMVW"
endpointresult = 0.512

[[record]]
substance = "AFLFSRDCMERWTMYDGLWW"
endpointresult = -0.063

[[record]]
substance = "CCWVSLMRGNRLSTDSSNTL"
endpointresult = -0.087

[[record]]
substance = "TGYLVWFG"
endpointresult = 0.951

[[record]]
substance = "LCTIRFVNIFVCRMSKLNSH"
endpointresult = -1.4

[[record]]
substance = "LNRFGSSNSLITKFC"
endpointresult = -1.58

[[record]]
substance = "KNFQEHYVFLRARRLKLLSY"
endpointresult = -0.095

[[record]]
substance = "NPRTQF"
endpointresult = -0.108

[[record]]
substance = "SGYFFPRL"
endpointresult = -0.73

[[record]]
substance = "KAIDLRVPSMYYRPWVV"
endpointresult = -0.58

[[record]]
substance = "VGGGVHGEFGHHYCPSVLGL"
endpointresult = 1.81

[[record]]
substance = "AFCLTLTGACLSMSDVARFT"
endpointresult = 4.19


----------
Assay: amyloid nucleation score (Sup35N fusion, yeast selection) (log enrichment); library NNK3; higher = more nucleation; inactive = no reads after selection
valueType: amyloid nucleation score

[[record]]
substance = "TLFSSCGLVHLLNCMRWPPG"
valuetype = "amyloid nucleation score"
endpointresult = "inactive"

[[record]]
substance = "SLSLWESRCQITFPLVIKVE"
valuetype = "amyloid nucleation score"
endpointresult = -0.017

[[record]]
substance = "WSQEATTM"
valuetype = "amyloid nucleation score"
endpointresult = "inactive"

[[record]]
substance = "ASKALIWCLSRCIDLVVLRE"
valuetype = "amyloid nucleation score"
endpointresult = "inactive"

[[record]]
substance = "CHYNFPVPAVKILRGQRNVA"
valuetype = "amyloid nucleation score"
endpointresult = "inactive"

[[record]]
substance = "SWLKVCRQGYGDSSIRYRLL"
valuetype = "amyloid nucleation score"
endpointresult = "inactive"

[[record]]
substance = "LEEDVHISFHHIFDRFCPTT"
valuetype = "amyloid nucleation score"
endpointresult = "inactive"

[[record]]
substance = "IRNIRFVFLILIDWSSRNSV"
valuetype = "amyloid nucleation score"
endpointresult = "inactive"

[[record]]
substance = "NVIYFHTQGMY"
valuetype = "amyloid nucleation score"
endpointresult = "inactive"

[[record]]
substance = "NNRLMYTSHISHACSYQMLK"
valuetype = "amyloid nucleation score"
endpointresult = "inactive"

[[record]]
substance = "FFERSR"
valuetype = "amyloid nucleation score"
endpointresult = "inactive"

[[record]]
substance = "CFETCLSAVGHSIQAQKLSG"
valuetype = "amyloid nucleation score"
endpointresult = 0.193

[[record]]
substance = "NLMRSILWVEYVQDCNCCSG"
valuetype = "amyloid nucleation score"
endpointresult = 2.54

[[record]]
substance = "CTSTLMEFSFSYEWSNGCCS"
valuetype = "amyloid nucleation score"
endpointresult = "inactive"

[[record]]
substance = "VRSNVKDRFT"
valuetype = "amyloid nucleation score"
endpointresult = "inactive"

[[record]]
substance = "VDMSNFRANVVTHSPIGGLR"
valuetype = "amyloid nucleation score"
endpointresult = "inactive"

[[record]]
substance = "IFVILW"
valuetype = "amyloid nucleation score"
endpointresult = 0.101

[[record]]
substance = "ESCRWLLVFKMVCWQ"
valuetype = "amyloid nucleation score"
endpointresult = "inactive"

[[record]]
substance = "AYPARLTIASEFKIMAHYGM"
valuetype = "amyloid nucleation score"
endpointresult = 1.36

[[record]]
substance = "NLIFRFPLAIKWSLFSLDCL"
valuetype = "amyloid nucleation score"
endpointresult = "inactive"

[[record]]
substance = "FFAILHLRVNARMCYGNGAY"
valuetype = "amyloid nucleation score"
endpointresult = 0.435

[[record]]
substance = "NAYVEGRSWVLVIENKDFAV"
valuetype = "amyloid nucleation score"
endpointresult = "inactive"

[[record]]
substance = "VPPFPRMEAGGYVHVVAFSV"
valuetype = "amyloid nucleation score"
endpointresult = "inactive"

[[record]]
substance = "GLANNYGQYRITSRAKLPRQ"
valuetype = "amyloid nucleation score"
endpointresult = "inactive"

[[record]]
substance = "ASRKTFYAL"
valuetype = "amyloid nucleation score"
endpointresult = "inactive"

[[record]]
substance = "RGTSSQ"
valuetype = "amyloid nucleation score"
endpointresult = "inactive"

[[record]]
substance = "VVFCEYSTCAVRSL"
valuetype = "amyloid nucleation score"
endpointresult = -0.219

[[record]]
substance = "QSFGSHYASVMAKY"
valuetype = "amyloid nucleation score"
endpointresult = "inactive"

[[record]]
substance = "TYEVRTCWDWQRMGSMYLAR"
valuetype = "amyloid nucleation score"
endpointresult = "inactive"

[[record]]
substance = "LRMSTSGIPYYMSGMSYYNI"
valuetype = "amyloid nucleation score"
endpointresult = "inactive"

[[record]]
substance = "CKCYYGTSDFCGVGFETASR"
valuetype = "amyloid nucleation score"
endpointresult = "inactive"

[[record]]
substance = "LCFAVSDCFNYKVLPILMGA"
valuetype = "amyloid nucleation score"
endpointresult = "inactive"

[[record]]
substance = "YRFGDILSVRSLQNFT"
valuetype = "amyloid nucleation score"
endpointresult = "inactive"

[[record]]
substance = "FISDRQSASYPWVQFWPE"
valuetype = "amyloid nucleation score"
endpointresult = 0.206

[[record]]
substance = "INWFGVRYRYDSSNYFMYQL"
valuetype = "amyloid nucleation score"
endpointresult = 0.986

[[record]]
substance = "NTPFFGTGLSQTIAVKHLQM"
valuetype = "amyloid nucleation score"
endpointresult = "inactive"

